- System: T1, recombinant biotinylated CD71 extracellular domain (Sino Biologics) with an N-terminal 6His tag (human, UniProt P02786 89-760, biotinylated (sites not given))
- T1 construct: extracellular domain; also called hCD71; huCD71
- T1 sequence (P02786 other isoform, or with tags, fused parts or gaps): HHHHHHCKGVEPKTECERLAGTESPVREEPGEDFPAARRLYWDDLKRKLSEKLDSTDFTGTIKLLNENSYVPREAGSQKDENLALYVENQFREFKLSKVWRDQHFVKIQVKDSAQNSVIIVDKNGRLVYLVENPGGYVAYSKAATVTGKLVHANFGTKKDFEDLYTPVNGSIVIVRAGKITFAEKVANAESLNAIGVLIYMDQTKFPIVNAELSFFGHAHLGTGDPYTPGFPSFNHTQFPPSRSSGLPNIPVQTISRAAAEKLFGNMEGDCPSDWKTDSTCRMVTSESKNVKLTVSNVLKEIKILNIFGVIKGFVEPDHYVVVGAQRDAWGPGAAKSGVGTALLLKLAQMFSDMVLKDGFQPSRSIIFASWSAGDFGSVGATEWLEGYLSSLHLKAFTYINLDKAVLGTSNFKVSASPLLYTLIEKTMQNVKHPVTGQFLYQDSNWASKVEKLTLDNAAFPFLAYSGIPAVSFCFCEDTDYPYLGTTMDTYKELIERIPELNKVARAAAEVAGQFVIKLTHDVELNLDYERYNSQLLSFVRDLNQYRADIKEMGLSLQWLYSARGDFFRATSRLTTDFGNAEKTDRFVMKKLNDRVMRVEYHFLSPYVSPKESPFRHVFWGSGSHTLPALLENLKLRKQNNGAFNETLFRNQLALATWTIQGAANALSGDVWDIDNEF
- Method description: screening ELISA
Measured property: hCD71

[
  {
    "Binder": "SEQ ID NO 143 (designed binder, FN3 domain) MLPAPKNLVVSRVTEDSARLSWTAPDAAFDSFHIAYEEADSEGEAIYLRVPGSERSYDLTGLKPGTEYSVNIQGVKGGIVSFPLHAEFTT",
    "Measured property": "hCD71",
    "Endpoint result": "3.94e+06"
  },
  {
    "Binder": "SEQ ID NO 94 (designed binder, FN3 domain) MLPAPKNLVVSRITEDSARLSWTAPDAAFDSFGIYYYEWWSTGEAIVLTVPGSERSYDLTGPKPGTEYYVKISGVKGGYRSYPLSAIFTT",
    "Measured property": "hCD71",
    "Endpoint result": 439000
  },
  {
    "Binder": "SEQ ID NO 176 (designed binder, FN3 domain) MLPAPKNLVVSRVTEDSARLSWTAPDAAFDSFPIAYAEPRPDGEAIVLTVPGSERSYDLTGLKPGTEYSVGIHGVKGGHDSSPLSAIFTT",
    "Measured property": "hCD71",
    "Endpoint result": "1.34e+06"
  },
  {
    "Binder": "SEQ ID NO 134 (designed binder, FN3 domain) MLPAPKNLVVSRVTEDSARLSWTAPDAAFDSFWIDYYERKYVGEAIVLTVPGSERSYDLTGLKPGTEYEVTIYGVKGGWYSDPLSAIFTT",
    "Measured property": "hCD71",
    "Endpoint result": "3.08e+06"
  },
  {
    "Binder": "SEQ ID NO 179 (designed binder, FN3 domain) MLPAPKNLVVSRVTEDSARLSWTAPDAAFDSFYIAYAEPRPDGEAIVLTVPGSERSYDLTGLKPGTEYPVPIPGVKGGPGSSPLSAIFTT",
    "Measured property": "hCD71",
    "Endpoint result": "2.68e+06"
  }
]

1. SEQ ID NO 309 (designed binder, FN3 domain) MLPAPKNLVVSRVTEDSARLSWTAPDAAFDSFIIDYLELDQEGEAIVLTVPGSERSYDLTGLKPGTEYAVYIFGVKGGYPSTPLSAIFTT
2. SEQ ID NO 88 (designed binder, FN3 domain) MLPAPKNLVVSRVTEDSARLSWTAPDAAFDSFWIEYFEWTVGGEAIVLTVPGSERSYDLTGLKPGTEYYVSIYGVKGGWLSPPLSAIFTT
// max by hCD71 over [ 1 , 2 ] Select an item and report its label.
1
(1: 3.14e+06, 2: 708000)
